- TESTED_ON: Aurora kinase C (Homo sapiens, UniProt Q9UQB9)
MEASUREMENT_TYPE: IC50 (nM)

* CN1CCN(Cc2ccc(-c3cnc4[nH]cc(-c5ccc6[nH]ccc6c5)c4c3)cc2)CC1 | 290

---

- TESTED_ON: Proto-oncogene tyrosine-protein kinase Src (Homo sapiens)
MEASUREMENT_TYPE: IC50 (µM)

* CN1CCN(Cc2ccc(-c3cnc4[nH]cc(-c5ccc6[nH]ccc6c5)c4c3)cc2)CC1 | 4.33

---

Cytochrome P450 3A4 (Homo sapiens, UniProt P08684) measurements of IC50, listed per entry.
Sequence (P08684 whole entry): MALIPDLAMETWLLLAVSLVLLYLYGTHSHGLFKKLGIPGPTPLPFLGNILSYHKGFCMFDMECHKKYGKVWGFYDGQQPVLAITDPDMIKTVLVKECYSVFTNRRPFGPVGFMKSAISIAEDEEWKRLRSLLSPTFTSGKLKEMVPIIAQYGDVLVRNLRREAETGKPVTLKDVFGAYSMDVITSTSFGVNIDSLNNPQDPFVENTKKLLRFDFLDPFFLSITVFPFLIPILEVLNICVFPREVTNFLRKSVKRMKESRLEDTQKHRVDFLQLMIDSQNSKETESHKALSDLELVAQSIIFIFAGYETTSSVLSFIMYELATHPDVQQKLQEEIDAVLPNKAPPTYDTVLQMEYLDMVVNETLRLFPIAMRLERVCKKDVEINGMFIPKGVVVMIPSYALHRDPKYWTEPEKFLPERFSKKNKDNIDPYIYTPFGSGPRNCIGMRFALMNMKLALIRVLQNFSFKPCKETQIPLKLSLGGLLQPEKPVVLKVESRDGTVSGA
MEASUREMENT_TYPE: IC50

- COc1cc(-c2cnc3[nH]cc(-c4cnc(N)nc4)c3c2)cc(OC)c1OC: > 30 µM
- COc1cc(-c2cnc3[nH]cc(-c4ccc(N)nc4)c3c2)cc(OC)c1OC: > 30 µM
- COc1cc(-c2cnc3[nH]cc(-c4ccc5[nH]ccc5c4)c3c2)cc(OC)c1OC: > 30 µM
- Nc1ncc(-c2cnc3[nH]cc(-c4ccc5[nH]ccc5c4)c3c2)cn1: 21.8 µM

---

- TESTED_ON: Mitogen-activated protein kinase kinase kinase 9 (Homo sapiens)
pIC50: −log10 of the molar value.
MEASUREMENT_TYPE: pIC50

* CCSCc1ccc2c(c1)c1c3c(c4c5cc(CSCC)ccc5n5c4c1n2[C@H]1C[C@](O)(C(=O)OC)[C@]5(C)O1)CNC3=O | > 9.00

---

- TESTED_ON: Vascular endothelial growth factor receptor 1 (Homo sapiens, UniProt P17948)
MEASUREMENT_TYPE: IC50 (nM)

* CN1CCN(Cc2ccc(-c3cnc4[nH]cc(-c5ccc6[nH]ccc6c5)c4c3)cc2)CC1 | 39

---

- TESTED_ON: Hepatocyte growth factor receptor (Homo sapiens, UniProt P08581)
MEASUREMENT_TYPE: IC50 (nM)

• CN1CCN(Cc2ccc(-c3cnc4[nH]cc(-c5ccc6[nH]ccc6c5)c4c3)cc2)CC1 = 177

---

- TESTED_ON: Receptor-type tyrosine-protein kinase FLT3 (Homo sapiens, UniProt P36888)
- Sequence (P36888 whole entry): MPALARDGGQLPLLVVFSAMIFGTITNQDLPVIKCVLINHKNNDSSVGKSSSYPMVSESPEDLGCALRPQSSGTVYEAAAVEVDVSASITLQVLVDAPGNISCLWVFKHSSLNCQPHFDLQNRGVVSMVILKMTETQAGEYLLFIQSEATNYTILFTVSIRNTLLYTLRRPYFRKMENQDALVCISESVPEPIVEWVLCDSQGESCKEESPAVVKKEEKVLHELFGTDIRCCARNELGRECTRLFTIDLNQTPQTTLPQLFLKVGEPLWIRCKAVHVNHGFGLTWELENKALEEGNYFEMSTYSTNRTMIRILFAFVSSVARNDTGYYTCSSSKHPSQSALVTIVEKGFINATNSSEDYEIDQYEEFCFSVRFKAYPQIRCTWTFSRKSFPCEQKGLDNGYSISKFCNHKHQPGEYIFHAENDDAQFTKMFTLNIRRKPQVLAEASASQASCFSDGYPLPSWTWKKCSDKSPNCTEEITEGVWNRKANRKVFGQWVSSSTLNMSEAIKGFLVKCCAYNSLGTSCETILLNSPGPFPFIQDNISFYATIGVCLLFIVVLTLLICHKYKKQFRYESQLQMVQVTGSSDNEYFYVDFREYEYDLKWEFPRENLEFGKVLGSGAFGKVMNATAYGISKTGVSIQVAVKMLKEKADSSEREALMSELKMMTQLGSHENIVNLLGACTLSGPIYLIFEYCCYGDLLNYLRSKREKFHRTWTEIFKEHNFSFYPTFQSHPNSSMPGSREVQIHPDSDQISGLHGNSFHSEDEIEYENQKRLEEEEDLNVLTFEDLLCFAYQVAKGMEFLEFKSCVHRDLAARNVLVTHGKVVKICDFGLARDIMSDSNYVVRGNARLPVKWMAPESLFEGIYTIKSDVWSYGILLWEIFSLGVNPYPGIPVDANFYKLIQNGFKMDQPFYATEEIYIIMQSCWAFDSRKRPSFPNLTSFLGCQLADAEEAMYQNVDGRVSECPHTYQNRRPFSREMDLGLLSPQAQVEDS
pIC50: −log10 of the molar value.
pIC50 reference
MEASUREMENT_TYPE: pIC50

- CN1CCN(Cc2ccc(-c3cnc4[nH]cc(-c5cnc6[nH]ccc6c5)c4c3)cc2)CC1: 8.02
- CN1CCN(Cc2ccc(-c3cnc4[nH]cc(-c5ccc6[nH]ccc6c5)c4c3)cc2)CC1: 8.40

---

- TESTED_ON: Cyclin-dependent kinase 1 (Homo sapiens)
pIC50: −log10 of the molar value.
MEASUREMENT_TYPE: pIC50

- CN1CCN(Cc2ccc(-c3cnc4[nH]cc(-c5ccc6[nH]ccc6c5)c4c3)cc2)CC1: 5.95

---

- TESTED_ON: Inhibitor of nuclear factor kappa-B kinase subunit alpha (Homo sapiens, UniProt O15111)
pIC50: −log10 of the molar value.
MEASUREMENT_TYPE: pIC50

* CN1CCN(Cc2ccc(-c3cnc4[nH]cc(-c5cnc6[nH]ccc6c5)c4c3)cc2)CC1 | 6.48

---

- TESTED_ON: Mitogen-activated protein kinase 14 (Homo sapiens)
pIC50: −log10 of the molar value.
MEASUREMENT_TYPE: pIC50

* CN1CCN(Cc2ccc(-c3cnc4[nH]cc(-c5ccc6[nH]ccc6c5)c4c3)cc2)CC1 | 4.92

---

// IC50 collected for Mitogen-activated protein kinase kinase kinase 11 (Homo sapiens)
MEASUREMENT_TYPE: IC50

- Nc1ncc(-c2cnc3[nH]cc(-c4ccc5[nH]ccc5c4)c3c2)cn1: 78 nM
- Nc1ccc(-c2cnc3[nH]cc(-c4ccc5[nH]ccc5c4)c3c2)cn1: 19 nM
- CN1CCN(Cc2ccc(-c3cnc4[nH]cc(-c5cnc6[nH]ccc6c5)c4c3)cc2)CC1: 21 nM
- COc1cc(-c2cnc3[nH]cc(-c4ccc5[nH]ccc5c4)c3c2)cc(OC)c1OC: 3 nM
- CN1CCN(Cc2ccc(-c3cnc4[nH]cc(-c5ccc6[nH]ccc6c5)c4c3)cc2)CC1: 14 nM
- COc1cc(-c2cnc3[nH]cc(-c4ccc(N)nc4)c3c2)cc(OC)c1OC: 7 nM
- COc1cc(-c2cnc3[nH]cc(-c4cnc(N)nc4)c3c2)cc(OC)c1OC: 9 nM

---

A collection of compounds and their measured IC50
- TESTED_ON: Leucine-rich repeat serine/threonine-protein kinase 2 (Homo sapiens, UniProt Q5S007)
- Sequence (Q5S007 whole entry): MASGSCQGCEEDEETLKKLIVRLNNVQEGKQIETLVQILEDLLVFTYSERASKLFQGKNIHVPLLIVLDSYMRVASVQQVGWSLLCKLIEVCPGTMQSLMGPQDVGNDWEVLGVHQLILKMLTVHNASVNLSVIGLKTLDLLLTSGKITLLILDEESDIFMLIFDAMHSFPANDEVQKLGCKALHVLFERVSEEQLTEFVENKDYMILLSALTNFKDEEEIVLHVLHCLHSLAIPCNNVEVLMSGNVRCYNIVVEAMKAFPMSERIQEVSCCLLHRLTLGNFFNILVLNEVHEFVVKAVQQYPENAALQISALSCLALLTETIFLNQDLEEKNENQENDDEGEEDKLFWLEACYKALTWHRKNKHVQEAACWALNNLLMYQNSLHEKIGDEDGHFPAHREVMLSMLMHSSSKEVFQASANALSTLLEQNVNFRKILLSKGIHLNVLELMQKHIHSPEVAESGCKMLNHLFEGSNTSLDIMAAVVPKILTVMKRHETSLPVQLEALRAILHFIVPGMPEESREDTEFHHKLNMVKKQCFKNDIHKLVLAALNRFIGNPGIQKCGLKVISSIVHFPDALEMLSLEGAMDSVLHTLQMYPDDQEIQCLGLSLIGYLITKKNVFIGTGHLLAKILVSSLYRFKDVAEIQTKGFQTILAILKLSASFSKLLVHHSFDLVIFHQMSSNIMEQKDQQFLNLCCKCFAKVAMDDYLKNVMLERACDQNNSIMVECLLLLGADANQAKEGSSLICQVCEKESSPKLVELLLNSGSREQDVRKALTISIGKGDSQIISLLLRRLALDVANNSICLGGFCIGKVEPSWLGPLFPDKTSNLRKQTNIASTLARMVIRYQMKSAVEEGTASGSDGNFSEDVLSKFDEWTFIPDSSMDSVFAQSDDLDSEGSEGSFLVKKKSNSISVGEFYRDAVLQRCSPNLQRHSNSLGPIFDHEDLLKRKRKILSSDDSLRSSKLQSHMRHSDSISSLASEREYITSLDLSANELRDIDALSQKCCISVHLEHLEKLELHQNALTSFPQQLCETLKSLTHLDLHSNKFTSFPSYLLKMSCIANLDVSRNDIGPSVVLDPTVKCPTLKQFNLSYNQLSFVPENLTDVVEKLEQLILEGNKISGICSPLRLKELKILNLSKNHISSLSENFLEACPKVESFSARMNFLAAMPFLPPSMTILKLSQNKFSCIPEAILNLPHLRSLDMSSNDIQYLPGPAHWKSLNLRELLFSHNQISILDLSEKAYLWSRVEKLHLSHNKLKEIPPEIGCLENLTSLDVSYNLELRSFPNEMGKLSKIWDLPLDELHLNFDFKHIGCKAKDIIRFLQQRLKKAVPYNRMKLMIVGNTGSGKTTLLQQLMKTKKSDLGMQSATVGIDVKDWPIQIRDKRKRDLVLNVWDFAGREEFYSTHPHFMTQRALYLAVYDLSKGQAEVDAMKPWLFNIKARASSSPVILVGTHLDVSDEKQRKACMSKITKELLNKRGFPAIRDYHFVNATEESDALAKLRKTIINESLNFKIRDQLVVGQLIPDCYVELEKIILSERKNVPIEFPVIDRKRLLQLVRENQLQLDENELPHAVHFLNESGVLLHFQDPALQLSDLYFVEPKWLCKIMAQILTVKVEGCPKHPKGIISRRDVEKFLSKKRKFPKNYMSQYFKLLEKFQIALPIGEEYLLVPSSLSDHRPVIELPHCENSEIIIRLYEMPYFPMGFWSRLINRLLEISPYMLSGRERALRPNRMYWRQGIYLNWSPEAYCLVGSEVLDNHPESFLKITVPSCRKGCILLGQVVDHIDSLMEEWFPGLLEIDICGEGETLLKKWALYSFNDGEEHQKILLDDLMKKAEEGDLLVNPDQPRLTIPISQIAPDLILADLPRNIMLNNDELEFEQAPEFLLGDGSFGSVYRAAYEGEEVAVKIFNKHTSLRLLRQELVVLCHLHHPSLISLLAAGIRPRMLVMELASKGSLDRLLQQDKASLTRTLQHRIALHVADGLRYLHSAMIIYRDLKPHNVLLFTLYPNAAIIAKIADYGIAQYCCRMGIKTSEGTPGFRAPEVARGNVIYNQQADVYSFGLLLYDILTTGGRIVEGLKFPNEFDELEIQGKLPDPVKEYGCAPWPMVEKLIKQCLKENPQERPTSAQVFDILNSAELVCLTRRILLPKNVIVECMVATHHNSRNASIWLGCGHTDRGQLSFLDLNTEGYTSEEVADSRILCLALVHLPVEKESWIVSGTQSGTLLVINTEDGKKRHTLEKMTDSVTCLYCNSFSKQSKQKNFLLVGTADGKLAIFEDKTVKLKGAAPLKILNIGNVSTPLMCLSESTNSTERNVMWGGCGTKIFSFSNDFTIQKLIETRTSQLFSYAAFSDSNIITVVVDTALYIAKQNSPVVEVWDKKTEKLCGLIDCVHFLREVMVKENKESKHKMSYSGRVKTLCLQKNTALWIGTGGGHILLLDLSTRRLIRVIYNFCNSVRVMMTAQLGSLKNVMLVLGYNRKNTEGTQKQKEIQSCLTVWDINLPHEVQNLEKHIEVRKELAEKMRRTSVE
MEASUREMENT_TYPE: IC50 (µM)

- COc1cc(-c2cnc3[nH]cc(-c4ccc(N)nc4)c3c2)cc(OC)c1OC: 0.005
- CN1CCN(Cc2ccc(-c3cnc4[nH]cc(-c5ccc6[nH]ccc6c5)c4c3)cc2)CC1: 0.011
- COc1cc(-c2cnc3[nH]cc(-c4ccc5[nH]ccc5c4)c3c2)cc(OC)c1OC: 0.035
- COc1cc(-c2cnc3[nH]c(=O)n(-c4ccc5[nH]ccc5c4)c3n2)cc(OC)c1OC: 2.97

---

- TESTED_ON: Cytochrome P450 2D6 (Homo sapiens)
pIC50: −log10 of the molar value.
MEASUREMENT_TYPE: pIC50

• COc1cc(-c2cnc3[nH]cc(-c4ccc(N)nc4)c3c2)cc(OC)c1OC = < 4.52
• CN1CCN(Cc2ccc(-c3cnc4[nH]cc(-c5ccc6[nH]ccc6c5)c4c3)cc2)CC1 = < 4.52
• COc1cc(-c2cnc3[nH]cc(-c4cnc(N)nc4)c3c2)cc(OC)c1OC = < 4.52
• Nc1ncc(-c2cnc3[nH]cc(-c4ccc5[nH]ccc5c4)c3c2)cn1 = 4.88
• COc1cc(-c2cnc3[nH]cc(-c4ccc5[nH]ccc5c4)c3c2)cc(OC)c1OC = < 4.52

---

- TESTED_ON: Rho-associated protein kinase 2 (Homo sapiens)
pIC50: −log10 of the molar value.
MEASUREMENT_TYPE: pIC50

• CN1CCN(Cc2ccc(-c3cnc4[nH]cc(-c5ccc6[nH]ccc6c5)c4c3)cc2)CC1 = 6.95

---

- TESTED_ON: Tyrosine-protein kinase ABL1 (Homo sapiens, UniProt P00519, T315I)
pIC50: −log10 of the molar value.
MEASUREMENT_TYPE: pIC50

• CN1CCN(Cc2ccc(-c3cnc4[nH]cc(-c5cnc6[nH]ccc6c5)c4c3)cc2)CC1 = 6.55

---

- TESTED_ON: Tyrosine-protein kinase SYK (Homo sapiens, UniProt P43405)
pIC50: −log10 of the molar value.
MEASUREMENT_TYPE: pIC50

- CN1CCN(Cc2ccc(-c3cnc4[nH]cc(-c5ccc6[nH]ccc6c5)c4c3)cc2)CC1: 6.14

---

- TESTED_ON: Aurora kinase B (Homo sapiens, UniProt Q96GD4)
pIC50: −log10 of the molar value.
MEASUREMENT_TYPE: pIC50

- CN1CCN(Cc2ccc(-c3cnc4[nH]cc(-c5ccc6[nH]ccc6c5)c4c3)cc2)CC1: 6.91

---

Each entry below carries its measured IC50, system: Mitogen-activated protein kinase kinase kinase 11 (Mus musculus, UniProt Q80XI6).
Sequence (Q80XI6 whole entry): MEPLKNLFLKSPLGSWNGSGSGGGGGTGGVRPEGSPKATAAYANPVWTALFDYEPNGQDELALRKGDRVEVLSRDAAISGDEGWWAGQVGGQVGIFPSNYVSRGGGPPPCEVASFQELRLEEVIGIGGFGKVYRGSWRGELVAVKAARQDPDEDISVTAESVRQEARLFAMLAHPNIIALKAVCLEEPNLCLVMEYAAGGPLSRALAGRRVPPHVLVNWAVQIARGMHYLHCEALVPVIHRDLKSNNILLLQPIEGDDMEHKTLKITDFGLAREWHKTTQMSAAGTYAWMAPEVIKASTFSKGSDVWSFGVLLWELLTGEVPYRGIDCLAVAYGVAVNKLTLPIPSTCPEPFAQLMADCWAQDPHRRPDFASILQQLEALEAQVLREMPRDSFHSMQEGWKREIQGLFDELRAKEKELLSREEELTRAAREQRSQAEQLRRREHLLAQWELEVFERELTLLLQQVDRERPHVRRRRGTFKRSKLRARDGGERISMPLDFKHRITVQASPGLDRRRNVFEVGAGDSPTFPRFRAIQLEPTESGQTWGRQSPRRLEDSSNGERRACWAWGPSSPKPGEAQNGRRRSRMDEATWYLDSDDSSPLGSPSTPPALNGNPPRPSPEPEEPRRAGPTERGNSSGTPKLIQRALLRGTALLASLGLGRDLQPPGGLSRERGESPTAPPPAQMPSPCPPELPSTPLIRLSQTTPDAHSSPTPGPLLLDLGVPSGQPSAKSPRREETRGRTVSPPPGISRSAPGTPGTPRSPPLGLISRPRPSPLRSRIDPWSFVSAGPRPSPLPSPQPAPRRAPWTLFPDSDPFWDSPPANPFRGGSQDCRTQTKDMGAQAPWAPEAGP
MEASUREMENT_TYPE: IC50 (nM)

- COc1cc(-c2cnc3[nH]cc(-c4ccc5[nH]ccc5c4)c3c2)cc(OC)c1OC: 2700
- COc1cc(-c2cnc3[nH]cc(-c4ccc(N)nc4)c3c2)cc(OC)c1OC: 120
- COc1cc(-c2cnc3[nH]cc(-c4cnc(N)nc4)c3c2)cc(OC)c1OC: 990
- Nc1ccc(-c2cnc3[nH]cc(-c4ccc5[nH]ccc5c4)c3c2)cn1: 430
- Nc1ncc(-c2cnc3[nH]cc(-c4ccc5[nH]ccc5c4)c3c2)cn1: 510
- CN1CCN(Cc2ccc(-c3cnc4[nH]cc(-c5ccc6[nH]ccc6c5)c4c3)cc2)CC1: 460

---

- TESTED_ON: Mitogen-activated protein kinase 1 (Homo sapiens, UniProt P28482)
pIC50: −log10 of the molar value.
MEASUREMENT_TYPE: pIC50

- CN1CCN(Cc2ccc(-c3cnc4[nH]cc(-c5ccc6[nH]ccc6c5)c4c3)cc2)CC1: 5.20

---

- TESTED_ON: Glycogen synthase kinase-3 beta (Homo sapiens)
MEASUREMENT_TYPE: IC50

• CN1CCN(Cc2ccc(-c3cnc4[nH]cc(-c5ccc6[nH]ccc6c5)c4c3)cc2)CC1 = > 10 µM

---

- TESTED_ON: Rho-associated protein kinase 1 (Homo sapiens, UniProt Q13464)
pIC50: −log10 of the molar value.
MEASUREMENT_TYPE: pIC50

* CN1CCN(Cc2ccc(-c3cnc4[nH]cc(-c5ccc6[nH]ccc6c5)c4c3)cc2)CC1 | 5.99

---

- TESTED_ON: Mitogen-activated protein kinase kinase kinase 9 (Homo sapiens, UniProt P80192)
MEASUREMENT_TYPE: IC50 (nM)

• CN1CCN(Cc2ccc(-c3cnc4[nH]cc(-c5ccc6[nH]ccc6c5)c4c3)cc2)CC1 = 19

---

- TESTED_ON: Mitogen-activated protein kinase kinase kinase 10 (Homo sapiens)
MEASUREMENT_TYPE: IC50 (nM)

• CCSCc1ccc2c(c1)c1c3c(c4c5cc(CSCC)ccc5n5c4c1n2[C@H]1C[C@](O)(C(=O)OC)[C@]5(C)O1)CNC3=O [CEP-1347] = 2
